Measured melting point, listed per entry for reference.
observable: melting point

- CCCCc1nc2c(N)nc3cccnc3c2n1CCCCNC(=O)Cn1cc(C)c(O)nc1=O: 242 to 244 °C
- COCc1cc(O)cc2cc(-c3ccc(O)cc3)oc12: 186 to 188 °C
- CC(C)c1cccc(C(C)C)c1NC(=O)CNCC1(Nc2ccccc2)CCCCC1: 104 to 106 °C
- COc1cc(CCC[C@H]2OC(=O)NC2=O)ccc1OCc1nc(-c2ccco2)oc1C: 122 to 123 °C
- O=C1Nc2c(Cl)cc(Cl)c3cccc1c23: 265 °C
- CC(C)C(=O)NC1=NC(=CCC(=O)Nc2ccc(Cl)cc2)CS1: 112 to 114 °C
- CC(=O)c1ccc(NC(=O)C(C)(C)C)nc1: 113 to 115 °C
- CSc1cc(C)nc(SC)c1NC(=O)CN1CCN(CCCSc2nc3ccccc3o2)CC1: 160 to 161 °C
- CCCCC(C(=O)OC)c1cccc(C(=O)c2cc3cc(C(=O)OC)sc3s2)c1 (stereo not given): 95 °C
- CCCCN1C(=O)c2c(ncn2C)N2CCN=C12: 122 to 124 °C

---

observable: melting point

• CCCCn1c(=O)n(CCCC)c2cc3c(N4CCN(C(=O)Nc5ccc(Oc6ccccc6)cc5)CC4)ncnc3cc21 = 134 to 136 °C
• CS(=O)(=O)Nc1ccc(CCN2CCCCC2)cc1 = 123 to 124 °C
• CC(C)C(=O)O[C@H](C)[C@@H](C)OC(=O)[C@@H](N)Cc1ccc(O)c(O)c1 = 165 to 166 °C
• FC(F)(F)c1ccc(Oc2ccc3nonc3c2)cc1 = 77 to 78 °C
• CCOC(=O)CC[C@H](NC(=O)/C=C/C(=O)c1ccccc1)C(=O)OCC = 83 to 85 °C
• Nc1c(Cl)nc2ccccc2c1NCc1ccccn1 = 98 to 102 °C
• CC(CC(=O)c1cccc(C(F)(F)F)c1)C(=O)O (stereo not given) = 90 to 91 °C
• CC(C)n1nc(-c2sc(NC(=O)c3cccc(Cl)c3)nc2-c2ccccc2)ccc1=O = 173 to 174 °C
• CC(C)(C)OC(=O)N[C@H](CC(=O)OCc1ccccc1)C(=O)N[C@H](CO)c1ccccc1 = 117 to 118 °C
• O=C(O)C(O)N1C(=O)CCN1c1cccc(F)c1 (stereo not given) = 115 to 116 °C
• COc1ccccc1N1CCN(CCC(C#N)(c2ccccc2)c2ccccc2[N+](=O)[O-])CC1 (stereo not given) = 61 to 64 °C
• CCCCC1CCCC2=C1C(=O)c1ccccc1C2=O (stereo not given) = 64 to 65 °C
• CCCCc1nn(-c2cc(NC(=O)c3ccccc3)ccc2Br)c(=O)n1Cc1ccc(-c2ccccc2S(=O)(=O)NC(=O)OC(C)(C)C)cc1F = 130 to 133 °C
• COc1ccc(C(=O)N2CC[C@@H](O)C2=O)cc1O = 129 to 131 °C
• CCCN(CCC)Cc1csc(-c2ncn3c2CN(C)C(=O)c2ccccc2-3)n1 = 111 to 112 °C
• OCCCSc1ccc2nccn2n1 = 108 to 109 °C
• CCOC(=O)C=C(C)Oc1ccc(C23CC4CC(CC(C4)C2)C3)cc1 = 97 to 98 °C
• CC(C)CC(=O)N[C@@H](CC(C)C)C(=O)N[C@@H](Cc1ccccc1)C(=O)CSCc1ccco1 = 108 to 115 °C
• CSc1c[nH]c2cccc([N+](=O)[O-])c12 = 123 to 124 °C
• COc1c(O)c(C)c(CN2CCN(C(=S)SC)CC2)c(O)c1OC = 135 to 136 °C

---

Measured melting point, listed per entry for reference.
observable: melting point

* CC(=O)c1ccc(Nc2nc(N)c(C(=O)c3ccccc3[N+](=O)[O-])s2)cc1 | 264 to 265 °C
* CC1CCCCN1C(=O)C=Cc1ccc(C(F)(F)F)cc1 (stereo not drawn) | 88 to 89 °C
* Cc1cc(-n2cccn2)c2cccc(OCc3c(Cl)ccc(S(=O)(=O)N4CCC(CO)CC4)c3Cl)c2n1 | 138 °C
* O=C1CSC(=S)N1N=c1sc2ccc(Cl)cc2s1 | 312 to 314 °C
* Cc1ccc(C2c3c(C)c4c(c(C)c3OC2(C)C)CCN4)cc1 (stereo not drawn) | 135 to 136 °C
* CC(C)(C)S(=O)(=O)c1ccccc1NC(=O)N[C@@H](Cc1ccc(NC(=O)c2c(Cl)cncc2Cl)cc1)C(=O)O | 228 °C
* O=C(c1ccccc1)c1cnc2cnccc2c1O | 228 °C
* Cc1ccc(N2C(=O)NC(=O)C23CCN(C)CC3)cc1 | 172 to 174 °C
* N#Cc1cccc(C=C2c3ccccc3CCc3ccccc32)c1 | 116 °C
* COC(=O)c1ccc(Cn2c(=O)c3cc(C(=O)NCc4ccc(OC)cc4)sc3n(C)c2=O)cc1OC | 201 to 203 °C
* CCCCCCc1cn(C)cc(-c2cccc(C(F)(F)F)c2)c1=O | 89.5 to 90.5 °C
* Cc1cn(-c2nc(C)cc3[nH]c(=O)ccc23)cn1 | 307 to 308 °C
* Clc1ccc2c(C3=CCN(CCCOc4cccc5[nH]ccc45)CC3)c[nH]c2c1Cl | 224 to 227 °C
* O=C(NN1CCOCC1)OCCCCCCOC(=O)NN1CCOCC1 | 197 to 199 °C
* Nc1ncc(CN2CC=C(c3ccccc3)CC2)c(N)n1 | 239 to 241 °C
* CC(=O)OC1=CC2=CCC3C(C(F)CC4(C)C(=O)CCC34)C2CC1 (stereo not drawn) | 175 to 177 °C
* O=c1oc(-c2ccccc2)cc(O)c1Sc1cccc(C(F)(F)F)c1 | 228 to 229 °C
* CN(C)C1(c2ccccc2)CCC2(OCCc3c2[nH]c2ccc(F)cc32)C(F)C1 (stereo not drawn) | 237 to 242 °C
* NCCC(C(N)=O)c1ccc(O)cc1 (stereo not drawn) | 168 to 170 °C
* COC(=O)Cc1ccccc1OCc1cc(OCCc2nc(-c3ccccc3)sc2C)no1 | 80 to 81 °C
* O=C1COc2ccc(C3=Nc4ccccc4SC3c3ccccn3)cc2N1 (stereo not drawn) | 168 to 170 °C
* O=CNCC1=CNCN1[C@H]1CCc2c(F)cc(F)cc2C1 | 194 to 195 °C
* C=CCN(CC=C)c1nc(NC(=O)OCC)n2oc(=O)nc2n1 | 172 to 174 °C
* Fc1cc(F)c2c(c1)CC(n1c(-c3nnn[nH]3)c[nH]c1=S)CC2 (stereo not drawn) | 214 to 215 °C
* Cc1cn(C(C(=O)N(C)C)c2ccccc2)nc1-c1ccccc1 (stereo not drawn) | 136 to 138 °C
* COc1cc(C#N)ccc1-c1cc(-c2ccc(C#N)cc2)on1 | 243 to 244 °C
* CCOC(C#N)NC(=O)c1ccc(COC)cc1 (stereo not drawn) | 99 to 100 °C
* Fc1cccc2c(NCCc3ccc(Oc4ccc(C(F)(F)F)cn4)cc3)ncnc12 | 152 °C
* Fc1ccc(NC(=S)c2ccccn2)cc1 | 82 to 85 °C
* O=C(OCCc1ccccc1)c1ccc2c(O)c(O)ccc2c1 | 164 to 166 °C
* CC12CCCC=C1CCC1C2CCC2(C)C(O)CCC12 (stereo not drawn) | 144 to 147 °C
* CCOC(=O)CC(=O)NC(=O)N1CC1C#N (stereo not drawn) | 121 to 123 °C
* O=C(NC1Cc2ccccc2C1)C(F)(F)F | 160 °C
* CS(=O)(=O)c1ccc(-c2cc(Br)nc(C(F)(F)F)c2-c2ccc(F)cc2)cc1 | 188 to 189 °C
* CNC(CC(C)C)c1nc(-c2ccc3c(c2)Nc2ccccc2O3)cs1 (stereo not drawn) | 143 to 147 °C
* CNc1ccccc1C(=O)c1ccccc1 | 66 to 68 °C
* CC(=O)Nc1ccc(CCN(C)C)c2cn[nH]c12 | 223 °C
* COc1ccc(S(=O)(=O)Nc2ncnc(Cl)c2Cc2ccccc2OC)cc1 | 149 to 151 °C
* Cn1c2ccc(Cl)cc2c(=O)n2nc(C#N)cc12 | 350 °C
* CC(=O)c1cccc(Oc2ncccc2OCCCc2ccncc2)c1 | 117 to 119 °C
* CC(=O)c1cc(I)cc(S(N)(=O)=O)c1 | 188 to 189 °C
* COc1ccc(Oc2c(C)cc(CC(=O)O)cc2C)cc1C(C)C | 118 to 120 °C
* O=C(O)c1cn(-c2ccc(O)cc2)c2cc(F)c(F)cc2c1=O | 288 to 290 °C

---

Measured melting point, listed per entry for reference.
observable: melting point

- COc1ccc(C2=NN(C3CCN(CC(N)=O)CC3)C(=O)C(C)(C)C2)c2c1OC(C)(C)C2: 215 to 216 °C
- COc1ccc(C)c(OC(F)C(=O)c2ccccc2)c1 (stereo not given): 57 to 58 °C
- CCCn1c(=O)c2c(nc(/C=C/c3ccc(O)c(OC)c3)n2C)n(CCC)c1=O: 187 to 188 °C
- O=C(Nc1ccc(-c2ccc(C(=O)N3CCN4CCC3CC4)o2)cc1)Nc1cccc(F)c1: 230 °C
- CCOC(=O)Cn1c(=O)c(-c2ccccc2Cl)cc2cnc(NC3C4CN(Cc5ccccc5)CC43)nc21 (stereo not given): 186 to 188 °C
